Target: ACK1 (Homo sapiens, UniProt Q07912)
Construct: a fusion of an N-terminal (His)6 Tag with amino acids 117 to 489 of ACK1; (His)6 (N)
Sequence (Q07912 117-489): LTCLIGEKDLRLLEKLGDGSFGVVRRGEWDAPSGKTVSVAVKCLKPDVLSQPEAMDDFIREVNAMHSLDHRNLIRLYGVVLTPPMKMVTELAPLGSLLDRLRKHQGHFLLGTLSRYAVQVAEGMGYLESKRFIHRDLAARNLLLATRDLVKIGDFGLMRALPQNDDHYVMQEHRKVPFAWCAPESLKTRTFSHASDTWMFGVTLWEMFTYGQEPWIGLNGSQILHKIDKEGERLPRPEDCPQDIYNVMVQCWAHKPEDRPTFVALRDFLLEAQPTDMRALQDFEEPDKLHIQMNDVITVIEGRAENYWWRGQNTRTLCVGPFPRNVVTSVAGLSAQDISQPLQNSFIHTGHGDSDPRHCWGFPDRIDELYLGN
Test: ACK1 Enzymatic Assay
Settings: 5 μM ATP, ELISA phosphotyrosine readout
pKi: −log10 of the molar value.
pKi listing for selected molecules.
endpoint.label: pKi

[[record]]
molecule = "O=C(NC1CC1)c1ccc(-c2[nH]c3ncnc(NCC4CCCO4)c3c2-c2ccccc2)cc1 (centres unmarked)"
system = "ACK1 (Homo sapiens, UniProt Q07912)"
observed_value = "> 8.00"

[[record]]
molecule = "O=S(=O)(NCCN1CCOCC1)c1ccc(-c2[nH]c3ncnc(NCC4CCCO4)c3c2-c2ccccc2)cc1 (centres unmarked)"
system = "ACK1 (Homo sapiens, UniProt Q07912)"
observed_value = "> 8.00"

[[record]]
molecule = "CO[C@@H]1CC[C@H]1CNc1ncnc2[nH]c(-c3ccc(OCCN(C)C)cc3)c(-c3ccccc3)c12 (mixture of isomers)"
system = "ACK1 (Homo sapiens, UniProt Q07912)"
observed_value = "7.00 to 8.00"

[[record]]
molecule = "CCOC(=O)CN(CC(=O)OCC)S(=O)(=O)c1ccc(-c2[nH]c3ncnc(NCC4CCCO4)c3c2-c2ccccc2)cc1 (centres unmarked)"
system = "ACK1 (Homo sapiens, UniProt Q07912)"
observed_value = "> 8.00"

[[record]]
molecule = "CN(C)S(=O)(=O)c1ccc(-c2[nH]c3ncnc(NC[C@@H]4CCCO4)c3c2-c2ccccc2)cc1"
system = "ACK1 (Homo sapiens, UniProt Q07912)"
observed_value = "> 8.00"


* * *

Target: ACK1 (Homo sapiens, UniProt Q07912)
Construct: a fusion of an N-terminal (His)6 Tag with amino acids 117 to 489 of ACK1; (His)6 (N)
Experiment: ACK1 Enzymatic Assay
Details: 5 μM ATP, ELISA phosphotyrosine readout
pKi: −log10 of the molar value.
pKi listing for selected compounds.
endpoint.label: pKi

[[record]]
compound = "CN(C)C(=O)c1ccc(-c2[nH]c3ncnc(NCC4CCCO4)c3c2-c2ccccc2)cc1 (stereo not drawn)"
endpoint_label = "pKi"
observed_value = "> 8.00"

[[record]]
compound = "O=S(=O)(NCC(O)CO)c1ccc(-c2[nH]c3ncnc(NC[C@@H]4CCCO4)c3c2-c2ccccc2)cc1 (stereo partly drawn)"
endpoint_label = "pKi"
observed_value = "> 8.00"

[[record]]
compound = "c1ccc(-c2[nH]c3ncnc(NCC4CCCO4)c3c2-c2ccccc2)cc1 (stereo not drawn)"
endpoint_label = "pKi"
observed_value = "> 8.00"

[[record]]
compound = "CN(C)CCOc1ccc(-c2[nH]c3ncnc(NC[C@H]4CCC[C@H]4NS(C)(=O)=O)c3c2-c2ccccc2)cc1 (relative stereo)"
endpoint_label = "pKi"
observed_value = "< 7.00"

[[record]]
compound = "c1ccc(-c2[nH]c3ncnc(NCC4CCCS4)c3c2-c2ccccc2)cc1 (stereo not drawn)"
endpoint_label = "pKi"
observed_value = "7.00 to 8.00"

[[record]]
compound = "CN(C)CCOc1ccc(-c2[nH]c3ncnc(NC[C@H]4CCC[C@H]4N)c3c2-c2ccccc2)cc1 (relative stereo)"
endpoint_label = "pKi"
observed_value = "< 7.00"

[[record]]
compound = "CN1CCCC1CCOc1ccc(-c2[nH]c3ncnc(NCC4CCCO4)c3c2-c2ccccc2)cc1 (stereo not drawn)"
endpoint_label = "pKi"
observed_value = "7.00 to 8.00"

[[record]]
compound = "CN(C)CCOc1ccc(-c2[nH]c3ncnc(NC[C@@H]4CCC[C@H]4N)c3c2-c2ccccc2)cc1 (relative stereo)"
endpoint_label = "pKi"
observed_value = "< 7.00"

[[record]]
compound = "C=CCNS(=O)(=O)c1ccc(-c2[nH]c3ncnc(NCC4CCCO4)c3c2-c2ccccc2)cc1 (stereo not drawn)"
endpoint_label = "pKi"
observed_value = "> 8.00"

[[record]]
compound = "CN(C)CCOc1ccc(-c2[nH]c3ncnc(NC[C@@H]4CCC[C@H]4NS(C)(=O)=O)c3c2-c2ccccc2)cc1 (relative stereo)"
endpoint_label = "pKi"
observed_value = "7.00 to 8.00"

[[record]]
compound = "CN(C)CCOc1ccc(-c2[nH]c3ncnc(NC[C@@H]4CCCO4)c3c2-c2ccccc2)cc1"
endpoint_label = "pKi"
observed_value = "> 8.00"

[[record]]
compound = "NS(=O)(=O)c1ccc(-c2[nH]c3ncnc(NC[C@@H]4CCCO4)c3c2-c2ccccc2)cc1"
endpoint_label = "pKi"
observed_value = "> 8.00"

[[record]]
compound = "COCCN(CCOC)S(=O)(=O)c1ccc(-c2[nH]c3ncnc(NCC4CCCO4)c3c2-c2ccccc2)cc1 (stereo not drawn)"
endpoint_label = "pKi"
observed_value = "> 8.00"

[[record]]
compound = "O=S(=O)(c1ccc(-c2[nH]c3ncnc(NC[C@@H]4CCCO4)c3c2-c2ccccc2)cc1)N(CCO)CCO"
endpoint_label = "pKi"
observed_value = "> 8.00"

[[record]]
compound = "CN(C)CCOc1ccc(-c2[nH]c3ncnc(NC[C@@H]4CC[C@H]4O)c3c2-c2ccccc2)cc1 (mixture of isomers)"
endpoint_label = "pKi"
observed_value = "7.00 to 8.00"

[[record]]
compound = "N#CCOc1ccc(-c2[nH]c3ncnc(NC[C@@H]4CCCO4)c3c2-c2ccccc2)cc1"
endpoint_label = "pKi"
observed_value = "> 8.00"

[[record]]
compound = "CC(C)(C)OC(=O)CNS(=O)(=O)c1ccc(-c2[nH]c3ncnc(NCC4CCCO4)c3c2-c2ccccc2)cc1 (stereo not drawn)"
endpoint_label = "pKi"
observed_value = "7.00 to 8.00"

[[record]]
compound = "CN(C)CCNC(=O)c1ccc(-c2[nH]c3ncnc(NCC4CCCO4)c3c2-c2ccccc2)cc1 (stereo not drawn)"
endpoint_label = "pKi"
observed_value = "> 8.00"

[[record]]
compound = "c1ccc(-c2c(-c3ccc(OCCN4CCOCC4)cc3)[nH]c3ncnc(NCC4CCCO4)c23)cc1 (stereo not drawn)"
endpoint_label = "pKi"
observed_value = "> 8.00"

[[record]]
compound = "O=C(O)CNS(=O)(=O)c1ccc(-c2[nH]c3ncnc(NC[C@@H]4CCCO4)c3c2-c2ccccc2)cc1"
endpoint_label = "pKi"
observed_value = "> 8.00"

[[record]]
compound = "O=S(=O)(NCCO)c1ccc(-c2[nH]c3ncnc(NC[C@@H]4CCCO4)c3c2-c2ccccc2)cc1"
endpoint_label = "pKi"
observed_value = "> 8.00"

[[record]]
compound = "CN(C)CCOc1ccc(-c2[nH]c3ncnc(NCC4CCC4)c3c2-c2ccccc2)cc1"
endpoint_label = "pKi"
observed_value = "7.00 to 8.00"

[[record]]
compound = "c1ccc(-c2[nH]c3ncnc(NCCN4CCOCC4)c3c2-c2ccccc2)cc1"
endpoint_label = "pKi"
observed_value = "7.00 to 8.00"

[[record]]
compound = "c1ccc(-c2[nH]c3ncnc(NCC4CCCCO4)c3c2-c2ccccc2)cc1 (stereo not drawn)"
endpoint_label = "pKi"
observed_value = "7.00 to 8.00"

[[record]]
compound = "O=C(NCCN1CCOCC1)c1ccc(-c2[nH]c3ncnc(NCC4CCCO4)c3c2-c2ccccc2)cc1 (stereo not drawn)"
endpoint_label = "pKi"
observed_value = "> 8.00"

[[record]]
compound = "O=S(=O)(c1ccc(-c2[nH]c3ncnc(NCC4CCCO4)c3c2-c2ccccc2)cc1)N1CCOCC1 (stereo not drawn)"
endpoint_label = "pKi"
observed_value = "> 8.00"

[[record]]
compound = "O=C(c1ccc(-c2[nH]c3ncnc(NCC4CCCO4)c3c2-c2ccccc2)cc1)N1CCOCC1 (stereo not drawn)"
endpoint_label = "pKi"
observed_value = "> 8.00"

[[record]]
compound = "CNS(=O)(=O)c1ccc(-c2[nH]c3ncnc(NCC4CCCO4)c3c2-c2ccccc2)cc1 (stereo not drawn)"
endpoint_label = "pKi"
observed_value = "> 8.00"

[[record]]
compound = "O=C1CCCN1CCOc1ccc(-c2[nH]c3ncnc(NCC4CCCO4)c3c2-c2ccccc2)cc1 (stereo not drawn)"
endpoint_label = "pKi"
observed_value = "> 8.00"

[[record]]
compound = "COCCNC(=O)c1ccc(-c2[nH]c3ncnc(NCC4CCCO4)c3c2-c2ccccc2)cc1 (stereo not drawn)"
endpoint_label = "pKi"
observed_value = "> 8.00"

